- TARGET ENTITY: HA of ca A/teal/Hong Kong/W312/97 (H6N1) (influenza A virus)
- ASSAY DETAILS: cell-based or functional assay
VALUE KIND: Neutralization IC50, H6-HK97 (µg/mL)

[[record]]
binder = "Antibody 15 (antibody, V domains shown) VH: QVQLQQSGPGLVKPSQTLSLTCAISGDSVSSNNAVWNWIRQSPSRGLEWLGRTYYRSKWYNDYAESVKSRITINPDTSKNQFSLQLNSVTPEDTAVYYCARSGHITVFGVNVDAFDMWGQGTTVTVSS VL: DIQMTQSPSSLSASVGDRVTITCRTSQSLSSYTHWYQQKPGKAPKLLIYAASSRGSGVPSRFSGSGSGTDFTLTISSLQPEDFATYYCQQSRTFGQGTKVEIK"
observed_result = 0.33

[[record]]
binder = "Antibody 13 (antibody, V domains shown) VH: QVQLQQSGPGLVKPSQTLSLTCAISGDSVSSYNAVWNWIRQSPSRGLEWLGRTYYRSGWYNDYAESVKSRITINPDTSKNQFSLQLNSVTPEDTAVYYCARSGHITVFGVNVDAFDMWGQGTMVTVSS VL: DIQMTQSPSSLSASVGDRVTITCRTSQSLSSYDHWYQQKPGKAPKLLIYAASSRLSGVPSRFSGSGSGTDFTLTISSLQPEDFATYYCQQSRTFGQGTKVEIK"
observed_result = 0.55

[[record]]
binder = "Antibody 14 (antibody, V domains shown) VH: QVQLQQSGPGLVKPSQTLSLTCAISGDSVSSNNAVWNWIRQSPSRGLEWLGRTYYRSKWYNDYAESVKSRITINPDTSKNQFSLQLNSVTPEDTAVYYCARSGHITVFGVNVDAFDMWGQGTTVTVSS VL: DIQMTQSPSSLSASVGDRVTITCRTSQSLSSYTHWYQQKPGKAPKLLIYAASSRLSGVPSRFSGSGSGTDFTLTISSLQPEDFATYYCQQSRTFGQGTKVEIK"
observed_result = 0.26

[[record]]
binder = "Antibody 11 (antibody, V domains shown) VH: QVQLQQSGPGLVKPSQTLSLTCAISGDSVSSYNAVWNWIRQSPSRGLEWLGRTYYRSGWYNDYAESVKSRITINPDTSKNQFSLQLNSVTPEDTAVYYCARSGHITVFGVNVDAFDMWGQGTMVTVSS VL: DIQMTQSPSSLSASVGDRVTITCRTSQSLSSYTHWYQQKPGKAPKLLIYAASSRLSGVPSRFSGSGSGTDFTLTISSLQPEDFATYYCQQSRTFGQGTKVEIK"
observed_result = 0.4


Values from patent US20160257732A1
